Values compiled from paper PMC7179312.

Answer each item with its documented MIC.
Tested on: P. aeruginosa PAM1154 carrying pUCP24-KPC-2::L169P (PAM4751)
Assay Name: MIC, CLSI broth microdilution
Format: cell-based, Pseudomonas aeruginosa
Measurement Parameters: Pseudomonas aeruginosa; PAM4751, pUCP24-KPC-2::L169P; drug alone
The response must be a number in µg/mL with no trailing unit.

Ask | Please give the measured MIC for this compound: C[C@@H](O)[C@H]1C(=O)N2C(C(=O)O)=C(S[C@@H]3CN[C@H](C(=O)N(C)C)C3)[C@H](C)[C@H]12 [Meropenem, meropenem]
Reply | 1

Ask | # iterate: CC(C)(O/N=C(\C(=O)N[C@@H]1C(=O)N2C(C(=O)[O-])=C(C[n+]3ccccc3)CS[C@H]12)c1csc(N)n1)C(=O)O [Ceftazidime, ceftazidime]
Reply | 256

Ask | # iterate: CO/N=C(\C(=O)N[C@@H]1C(=O)N2C(C(=O)[O-])=C(C[N+]3(C)CCCC3)CS[C@H]12)c1csc(N)n1 [Cefepime, cefepime]
Reply | 64
